subject_of_test: T1, human GFRAL (human, UniProt Q6UXV0 19-394)
T1 sequence (looked up): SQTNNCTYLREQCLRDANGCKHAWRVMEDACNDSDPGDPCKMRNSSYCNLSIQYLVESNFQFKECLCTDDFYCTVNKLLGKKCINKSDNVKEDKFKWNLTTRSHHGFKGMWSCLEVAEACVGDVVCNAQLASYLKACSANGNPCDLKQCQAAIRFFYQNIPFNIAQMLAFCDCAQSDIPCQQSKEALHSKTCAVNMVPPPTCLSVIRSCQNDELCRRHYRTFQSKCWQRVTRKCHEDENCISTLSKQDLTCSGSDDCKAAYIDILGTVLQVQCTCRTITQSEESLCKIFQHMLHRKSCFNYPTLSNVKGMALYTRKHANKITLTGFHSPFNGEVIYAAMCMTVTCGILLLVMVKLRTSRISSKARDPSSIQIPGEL
assay_protocol: cell-based or functional assay
measured_attribute: GDF15 activity (EC50, pM, 1% HSA) (pM)
Supply the numeric figure in pM, leaving out any unit text.

binder	measured_attribute	units	endpoint_value
MLC111 (ligand, Moiety B (HOOC-(CH2)16-CO-gGlu-2XADO-EDA-CO-CH2) on 51C of Linker (82C of fusion polypeptide)) HGEGTFTSDVSSYLEEQAAKEFIAWLVRGGGGAQPGAQPGAQPGAQPGAQPGAQPGAQPGAQPGQEPGAQPGQEPGAQPGQCPGQEPGQEPGAQPGQEPGAQPGQEPGAQPARQGDHCPLGPGRCCRLHTVRASLEDLGWADWVLSPREVQVTMCIGACPSQFRAANLHAQIKTSLHRLKPDTVPAPCCVPASYNPMVLIQKTDTGVSLQTYDDLLAKDCHCI	GDF15 activity (EC50, pM, 1% HSA)	pM	194

What the record says about MLC122 (ligand, Moiety B (HOOC-(CH2)16-CO-gGlu-2XADO-EDA-CO-CH2) on 5C of Linker (36C of fusion polypeptide)) HGEGTFTSDVSSYLEEQAAKEFIAWLVRGGGGAQPCQAPGAQPGAQPGAQPGAQPGAQPGAQPGQEPGAQPGQEPGAQPGQEPGAQPGQEPGAQPGQEPGAQPGQEPGAQPARQGDHCPLGPGRCCRLHTVRASLEDLGWADWVLSPREVQVTMCIGACPSQFRAANLHAQIKTSLHRLKPDTVPAPCCVPASYNPMVLIQKTDTGVSLQTYDDLLAKDCHCI : GDF15 activity (EC50, pM, 1% HSA) is 70.2

Documented GDF15 activity (EC50, pM, 1% HSA) of Native GDF15 (ligand) ARNGDHCPLGPGRCCRLHTVRASLEDLGWADWVLSPREVQVTMCIGACPSQFRAANMHAQIKTSLHRLKPDTVPAPCCVPASYNPMVLIQKTDTGVSLQTYDDLLAKDCHCI : 11.3

According to the records, this binder MLC105 (ligand, Moiety B (HOOC-(CH2)16-CO-gGlu-2XADO-EDA-CO-CH2) on 17C of Linker (48C of fusion polypeptide)) HGEGTFTSDVSSYLEEQAAKEFIAWLVRGGGGAQPGAQPGAQPGAQPCQAPGAQPGAQPGAQPGQEPGAQPGQEPGAQPGQEPGAQPGQEPGAQPGQEPGAQPGQEPGAQPARQGDHCPLGPGRCCRLHTVRASLEDLGWADWVLSPREVQVTMCIGACPSQFRAANLHAQIKTSLHRLKPDTVPAPCCVPASYNPMVLIQKTDTGVSLQTYDDLLAKDCHCI displays GDF15 activity (EC50, pM, 1% HSA) of 55.5

GDF15 activity (EC50, pM, 1% HSA) reported for this binder MLC126 (ligand, Moiety B (HOOC-(CH2)16-CO-gGlu-2XADO-EDA-CO-CH2) on 73C of Linker (104C of fusion polypeptide)) HGEGTFTSDVSSYLEEQAAKEFIAWLVRGGGGAQPGAQPGAQPGAQPGAQPGAQPGAQPGAQPGQEPGAQPGQEPGAQPGQEPGAQPGQEPGAQPGQEPGAQPCQEPGAQPARQGDHCPLGPGRCCRLHTVRASLEDLGWADWVLSPREVQVTMCIGACPSQFRAANLHAQIKTSLHRLKPDTVPAPCCVPASYNPMVLIQKTDTGVSLQTYDDLLAKDCHCI : 1670

Form: binder = MLC089 (ligand, Moiety B (HOOC-(CH2)16-CO-gGlu-2XADO-EDA-CO-CH2) on 39C of Linker (70C of fusion polypeptide)) HGEGTFTSDVSSYLEEQAAKEFIAWLVRGGGGAQPGAQPGAQPGAQPGAQPGAQPGAQPGAQPGQEPGQCPGQEPGAQPGQEPGAQPGQEPGAQPGQEPGAQPGQEPGAQPARQGDHCPLGPGRCCRLHTVRASLEDLGWADWVLSPREVQVTMCIGACPSQFRAANLHAQIKTSLHRLKPDTVPAPCCVPASYNPMVLIQKTDTGVSLQTYDDLLAKDCHCI ; GDF15 activity (EC50, pM, 1% HSA) = 66.2
